# credit: patent US20150258192A1

- subject.of.test: DRAK1(h) (Homo sapiens)
- Sequence (Q9UEE5 1-414): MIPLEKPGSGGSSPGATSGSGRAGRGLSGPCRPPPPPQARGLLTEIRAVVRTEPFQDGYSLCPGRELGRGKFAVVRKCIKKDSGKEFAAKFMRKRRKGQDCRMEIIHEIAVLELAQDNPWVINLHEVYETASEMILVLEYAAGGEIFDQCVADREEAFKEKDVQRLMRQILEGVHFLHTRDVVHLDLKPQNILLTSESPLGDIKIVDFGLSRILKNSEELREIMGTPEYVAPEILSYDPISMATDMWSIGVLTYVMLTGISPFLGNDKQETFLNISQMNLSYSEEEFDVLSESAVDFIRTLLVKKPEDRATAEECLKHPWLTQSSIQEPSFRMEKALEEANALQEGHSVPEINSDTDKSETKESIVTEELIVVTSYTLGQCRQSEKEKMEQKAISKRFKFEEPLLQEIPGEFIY
- assay.procedure: Kinase Profiling Assay
- Format: biochemical
- condition.parameters: peptide 100 μM
No end group written: not given here.
reported.endpoint: % activity (%)
The response must be a number in % with no trailing unit.

1. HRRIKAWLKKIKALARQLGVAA (Mammal) [MMI-0500] = 8
2. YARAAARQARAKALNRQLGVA (Mammal) [MMI-0200] = 34
3. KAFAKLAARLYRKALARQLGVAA [MMI-0400] = 14

Quick one: give measured % activity for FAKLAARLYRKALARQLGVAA [MMI-0300]
14

Please look at this sequence and report its % activity: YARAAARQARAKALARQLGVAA [MMI-0100]
47

====

Overview of reported % activity across a group of sequences:
- subject.of.test: Lyn(h) (Homo sapiens, UniProt P07948)
- Construct: purchased Millipore
- assay.procedure: Kinase Profiling Assay
- Type: biochemical
- condition.parameters: peptide 100 μM
- Procedure: Every kinase activity measurement was conducted in duplicate. Specifically, in these assays, a positively charged substrate is phosphorylated with a radiolabeled phosphate group from an ATP if the kinase is not inhibited by an inhibitor peptide. The positively charged substrate then is attracted to a negatively charged filter membrane, quantified with a scintillation counter, and compared to a 100% activity control. […]

1. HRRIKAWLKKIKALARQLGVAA (Mammal) [MMI-0500] = 31%
2. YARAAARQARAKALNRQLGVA (Mammal) [MMI-0200] = 98%
3. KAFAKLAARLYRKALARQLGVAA [MMI-0400] = 3%

Retrieve % activity measured for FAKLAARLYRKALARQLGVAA [MMI-0300] and print it.
69%

====

Catalogue of % activity readings, one per entry.
- subject.of.test: CDK7/cyclinH/MAT1(h) (Homo sapiens, UniProt P50613)
- Sequence (P50613 whole entry): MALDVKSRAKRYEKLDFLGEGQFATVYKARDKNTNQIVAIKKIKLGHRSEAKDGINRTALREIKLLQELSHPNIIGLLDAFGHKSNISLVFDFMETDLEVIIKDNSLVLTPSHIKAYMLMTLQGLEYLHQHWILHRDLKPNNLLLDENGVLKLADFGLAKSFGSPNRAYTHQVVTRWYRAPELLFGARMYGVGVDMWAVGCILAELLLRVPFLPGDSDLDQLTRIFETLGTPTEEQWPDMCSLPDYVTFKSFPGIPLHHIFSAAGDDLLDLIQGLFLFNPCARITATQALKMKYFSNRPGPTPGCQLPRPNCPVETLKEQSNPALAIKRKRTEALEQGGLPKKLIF
- Sequence (P51946 whole entry partner): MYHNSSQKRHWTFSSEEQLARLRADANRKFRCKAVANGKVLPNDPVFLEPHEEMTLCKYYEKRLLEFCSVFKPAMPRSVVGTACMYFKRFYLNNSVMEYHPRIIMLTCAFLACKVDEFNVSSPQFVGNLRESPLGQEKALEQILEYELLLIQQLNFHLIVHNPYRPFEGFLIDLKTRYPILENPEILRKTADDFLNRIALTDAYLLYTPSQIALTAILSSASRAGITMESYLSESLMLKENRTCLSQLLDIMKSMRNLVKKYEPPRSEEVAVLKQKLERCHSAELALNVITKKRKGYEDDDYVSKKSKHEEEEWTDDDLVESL
- Sequence (P51948 whole entry partner): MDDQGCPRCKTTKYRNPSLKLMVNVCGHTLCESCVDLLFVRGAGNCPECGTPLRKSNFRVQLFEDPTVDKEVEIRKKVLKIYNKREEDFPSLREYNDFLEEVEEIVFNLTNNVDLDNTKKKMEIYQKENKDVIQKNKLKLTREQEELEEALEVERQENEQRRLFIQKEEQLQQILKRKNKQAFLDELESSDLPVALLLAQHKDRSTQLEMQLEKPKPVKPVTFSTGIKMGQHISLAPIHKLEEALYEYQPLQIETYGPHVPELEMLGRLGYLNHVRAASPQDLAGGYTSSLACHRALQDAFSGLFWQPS
- assay.procedure: Kinase Profiling Assay
- Type: biochemical
- condition.parameters: peptide 100 μM
Provide the reading as a plain figure in %.

1. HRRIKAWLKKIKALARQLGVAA (Mammal) [MMI-0500] = 15
2. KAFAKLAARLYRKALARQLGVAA [MMI-0400] = 47
3. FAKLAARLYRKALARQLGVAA [MMI-0300] = 65

Could you now look at the following sequence, please?
// Input: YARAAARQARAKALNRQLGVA (Mammal) [MMI-0200] . Output its % activity only.
67

====

- subject.of.test: SRPK1(h) (Homo sapiens)
- Construct: purchased Millipore
- Sequence (Q96SB4 whole entry): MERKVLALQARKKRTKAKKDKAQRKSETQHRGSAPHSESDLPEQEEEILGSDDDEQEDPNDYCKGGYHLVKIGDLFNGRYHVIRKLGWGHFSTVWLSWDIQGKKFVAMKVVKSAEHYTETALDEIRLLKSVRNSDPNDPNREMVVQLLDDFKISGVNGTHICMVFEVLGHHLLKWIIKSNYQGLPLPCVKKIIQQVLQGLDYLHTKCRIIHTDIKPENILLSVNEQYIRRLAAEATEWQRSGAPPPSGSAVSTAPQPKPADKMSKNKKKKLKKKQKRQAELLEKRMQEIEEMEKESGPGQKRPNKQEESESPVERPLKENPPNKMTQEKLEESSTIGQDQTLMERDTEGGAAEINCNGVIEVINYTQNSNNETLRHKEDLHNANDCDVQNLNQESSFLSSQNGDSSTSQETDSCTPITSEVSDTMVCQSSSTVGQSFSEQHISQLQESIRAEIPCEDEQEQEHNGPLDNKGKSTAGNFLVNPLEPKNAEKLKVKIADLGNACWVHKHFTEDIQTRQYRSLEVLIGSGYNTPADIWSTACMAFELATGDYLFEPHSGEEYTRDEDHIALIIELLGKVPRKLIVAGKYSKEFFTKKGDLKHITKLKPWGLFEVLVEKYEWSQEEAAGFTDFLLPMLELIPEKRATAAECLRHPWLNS
- assay.procedure: Kinase Profiling Assay
- Assay type: biochemical
- condition.parameters: peptide 100 μM
No end group written: not given here.
Decide using % activity alone. Strictly below 90%: yes (1). Equal to or above 90%: no (0).

# count of solved cases: 3
1) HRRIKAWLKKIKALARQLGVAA (Mammal) [MMI-0500] = yes (1)
2) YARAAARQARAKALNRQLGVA (Mammal) [MMI-0200] = no (0)
3) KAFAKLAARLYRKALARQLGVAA [MMI-0400] = no (0)

--- query ---
Regarding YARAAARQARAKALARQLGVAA [MMI-0100] , kindly confirm whether its % activity is beneath 90%.
yes (1)

====

# % activity annotations
- subject.of.test: GSK3β(h) (Homo sapiens, UniProt P49841)
- Construct: purchased Millipore
- Sequence (P49841 whole entry): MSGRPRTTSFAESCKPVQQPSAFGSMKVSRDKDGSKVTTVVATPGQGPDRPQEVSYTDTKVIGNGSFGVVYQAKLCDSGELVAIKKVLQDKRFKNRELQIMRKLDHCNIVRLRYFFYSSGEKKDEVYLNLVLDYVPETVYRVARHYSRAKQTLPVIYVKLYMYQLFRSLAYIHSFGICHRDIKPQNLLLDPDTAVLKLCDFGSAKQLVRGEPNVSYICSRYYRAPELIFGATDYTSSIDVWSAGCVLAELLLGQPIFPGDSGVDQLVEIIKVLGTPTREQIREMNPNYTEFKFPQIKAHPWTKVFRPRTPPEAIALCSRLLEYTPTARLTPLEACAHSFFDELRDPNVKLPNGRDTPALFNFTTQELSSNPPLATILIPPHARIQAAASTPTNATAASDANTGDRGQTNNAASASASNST
- assay.procedure: Kinase Profiling Assay
- Assay type: biochemical
- condition.parameters: peptide 100 μM
- Description: Every kinase activity measurement was conducted in duplicate. Specifically, in these assays, a positively charged substrate is phosphorylated with a radiolabeled phosphate group from an ATP if the kinase is not inhibited by an inhibitor peptide. The positively charged substrate then is attracted to a negatively charged filter membrane, quantified with a scintillation counter, and compared to a 100% activity control. […]
Respond with the bare value in %.

Example results:
1. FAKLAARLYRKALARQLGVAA [MMI-0300] = 205
2. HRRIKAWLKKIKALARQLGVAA (Mammal) [MMI-0500] = 238
3. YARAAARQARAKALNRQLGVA (Mammal) [MMI-0200] = 132

Now turn to the next sequence.
Tell me measured % activity for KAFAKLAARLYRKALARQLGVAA [MMI-0400] please.
202

====

- subject.of.test: CDK5/p35(h) (Homo sapiens, UniProt Q00535)
- Sequence (Q00535 whole entry): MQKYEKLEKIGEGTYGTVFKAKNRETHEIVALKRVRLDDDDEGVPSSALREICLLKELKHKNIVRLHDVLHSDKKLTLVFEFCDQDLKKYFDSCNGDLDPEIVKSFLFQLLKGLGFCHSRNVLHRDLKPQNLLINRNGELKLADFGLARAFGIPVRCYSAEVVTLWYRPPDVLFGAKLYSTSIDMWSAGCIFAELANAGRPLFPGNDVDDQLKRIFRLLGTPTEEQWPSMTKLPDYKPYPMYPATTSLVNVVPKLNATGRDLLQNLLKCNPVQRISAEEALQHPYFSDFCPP
- Sequence (Q15078 whole entry partner): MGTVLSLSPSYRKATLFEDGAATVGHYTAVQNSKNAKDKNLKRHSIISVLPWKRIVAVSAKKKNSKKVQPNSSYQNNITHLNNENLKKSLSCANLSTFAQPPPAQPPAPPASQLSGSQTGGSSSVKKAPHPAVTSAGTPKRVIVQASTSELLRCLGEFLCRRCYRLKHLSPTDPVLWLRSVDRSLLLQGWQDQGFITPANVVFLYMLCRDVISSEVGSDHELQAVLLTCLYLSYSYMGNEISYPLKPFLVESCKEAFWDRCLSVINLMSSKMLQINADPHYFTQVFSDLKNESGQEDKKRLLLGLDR
- assay.procedure: Kinase Profiling Assay
- Type: biochemical
- condition.parameters: peptide 100 μM
reported.endpoint: % activity
In your response, put the unit directly after the numeric value.

Here are 2 sequences together with their reported answers.
1) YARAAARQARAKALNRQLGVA (Mammal) [MMI-0200] = 92%
2) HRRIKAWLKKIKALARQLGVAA (Mammal) [MMI-0500] = 59%

Recall the reported % activity of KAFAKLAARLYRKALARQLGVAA [MMI-0400] when tested on CDK5/p35(h) (Homo sapiens, UniProt Q00535).
76%

Under CDK5/p35(h) (Homo sapiens, UniProt Q00535): report % activity of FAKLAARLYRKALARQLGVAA [MMI-0300] .
79%

====

- subject.of.test: HIPK1(h) (Homo sapiens)
- Construct: purchased Millipore
- Sequence (Q86Z02 whole entry): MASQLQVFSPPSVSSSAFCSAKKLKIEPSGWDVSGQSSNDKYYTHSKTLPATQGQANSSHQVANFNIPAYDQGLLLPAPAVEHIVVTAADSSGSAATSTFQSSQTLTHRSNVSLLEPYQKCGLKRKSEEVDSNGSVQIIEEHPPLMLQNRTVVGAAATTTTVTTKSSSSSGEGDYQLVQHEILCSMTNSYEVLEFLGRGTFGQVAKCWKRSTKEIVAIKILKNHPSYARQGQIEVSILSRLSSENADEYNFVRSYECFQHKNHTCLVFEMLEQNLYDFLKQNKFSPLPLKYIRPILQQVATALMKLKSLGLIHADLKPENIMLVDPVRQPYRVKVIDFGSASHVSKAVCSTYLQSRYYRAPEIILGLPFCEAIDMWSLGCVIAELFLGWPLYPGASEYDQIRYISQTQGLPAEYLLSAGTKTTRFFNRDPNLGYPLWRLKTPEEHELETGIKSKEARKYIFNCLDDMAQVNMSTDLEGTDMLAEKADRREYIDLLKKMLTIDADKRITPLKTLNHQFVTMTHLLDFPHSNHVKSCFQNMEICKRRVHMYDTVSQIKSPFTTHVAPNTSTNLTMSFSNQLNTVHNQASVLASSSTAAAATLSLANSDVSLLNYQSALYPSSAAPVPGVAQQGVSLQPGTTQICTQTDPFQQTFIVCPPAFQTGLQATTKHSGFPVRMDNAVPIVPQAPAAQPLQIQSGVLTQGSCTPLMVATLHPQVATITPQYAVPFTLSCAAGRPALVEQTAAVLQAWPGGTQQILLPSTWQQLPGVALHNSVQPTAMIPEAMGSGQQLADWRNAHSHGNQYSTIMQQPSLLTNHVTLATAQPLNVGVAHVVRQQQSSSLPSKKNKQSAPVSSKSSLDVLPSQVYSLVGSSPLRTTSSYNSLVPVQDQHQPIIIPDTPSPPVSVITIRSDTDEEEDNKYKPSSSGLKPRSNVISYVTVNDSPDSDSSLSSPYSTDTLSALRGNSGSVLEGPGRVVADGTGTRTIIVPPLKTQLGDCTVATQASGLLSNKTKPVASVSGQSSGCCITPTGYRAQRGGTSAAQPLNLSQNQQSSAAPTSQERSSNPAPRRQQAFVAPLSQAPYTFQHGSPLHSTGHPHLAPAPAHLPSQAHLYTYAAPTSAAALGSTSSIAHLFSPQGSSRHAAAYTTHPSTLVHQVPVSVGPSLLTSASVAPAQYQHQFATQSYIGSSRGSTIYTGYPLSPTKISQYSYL
- assay.procedure: Kinase Profiling Assay
- Type: biochemical
- condition.parameters: peptide 100 μM
No end group written: not given here.
reported.endpoint: % activity (%)
// note: answer is a bare numeric in %

1) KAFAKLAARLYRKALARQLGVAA [MMI-0400] = 91
2) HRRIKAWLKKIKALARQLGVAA (Mammal) [MMI-0500] = 47
3) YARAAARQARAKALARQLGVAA [MMI-0100] = 94

Now look at this entry.
// fetch % activity given entry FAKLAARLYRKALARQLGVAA [MMI-0300]
74

====

- subject.of.test: PTK5(h) (Homo sapiens, UniProt P42685)
- Sequence (P42685 whole entry): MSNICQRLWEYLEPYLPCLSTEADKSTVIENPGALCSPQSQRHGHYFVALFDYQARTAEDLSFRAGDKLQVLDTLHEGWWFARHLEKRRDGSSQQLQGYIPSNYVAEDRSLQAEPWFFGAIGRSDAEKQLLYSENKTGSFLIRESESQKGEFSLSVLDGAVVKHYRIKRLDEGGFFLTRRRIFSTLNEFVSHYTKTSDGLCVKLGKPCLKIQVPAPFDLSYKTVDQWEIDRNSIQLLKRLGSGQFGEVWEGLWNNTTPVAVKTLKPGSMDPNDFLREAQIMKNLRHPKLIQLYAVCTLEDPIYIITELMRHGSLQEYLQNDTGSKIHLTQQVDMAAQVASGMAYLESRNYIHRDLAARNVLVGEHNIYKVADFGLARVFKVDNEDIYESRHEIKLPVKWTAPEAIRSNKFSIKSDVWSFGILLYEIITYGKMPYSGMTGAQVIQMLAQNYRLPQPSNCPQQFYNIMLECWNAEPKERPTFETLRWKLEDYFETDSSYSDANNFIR
- assay.procedure: Kinase Profiling Assay
- Assay type: biochemical
- condition.parameters: peptide 100 μM
No end group written: not given here.
The reader will find reported % activity values listed item by item below.
// return numeric value only (unit: %, not printed)

1) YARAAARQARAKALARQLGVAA [MMI-0100] = 135
2) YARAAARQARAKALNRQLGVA (Mammal) [MMI-0200] = 108
3) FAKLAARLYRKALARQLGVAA [MMI-0300] = 132

Provide one value: measured % activity of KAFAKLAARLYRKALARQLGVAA [MMI-0400]
129

# return recorded % activity for input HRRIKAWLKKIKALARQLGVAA (Mammal) [MMI-0500]
96

====

- subject.of.test: Pim-1(h) (Homo sapiens)
- Sequence (P11309 whole entry): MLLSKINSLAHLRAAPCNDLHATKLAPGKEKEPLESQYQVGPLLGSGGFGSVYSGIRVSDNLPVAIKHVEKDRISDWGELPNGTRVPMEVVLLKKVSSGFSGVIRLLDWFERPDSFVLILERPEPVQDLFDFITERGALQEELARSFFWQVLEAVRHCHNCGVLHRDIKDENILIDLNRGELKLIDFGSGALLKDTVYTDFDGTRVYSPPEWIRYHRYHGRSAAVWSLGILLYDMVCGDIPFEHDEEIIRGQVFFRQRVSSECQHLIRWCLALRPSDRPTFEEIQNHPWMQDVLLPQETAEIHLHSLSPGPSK
- assay.procedure: Kinase Profiling Assay
- Type: biochemical
- condition.parameters: peptide 100 μM
reported.endpoint: % activity (%)
Report only the number, with the unit % understood.

1) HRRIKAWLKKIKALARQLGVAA (Mammal) [MMI-0500] = 0
2) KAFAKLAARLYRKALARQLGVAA [MMI-0400] = 7
3) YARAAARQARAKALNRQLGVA (Mammal) [MMI-0200] = 18

// below: % activity requested for another sequence
Note down % activity recorded for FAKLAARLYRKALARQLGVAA [MMI-0300]
8

====

% activity: recorded values
- subject.of.test: CDK6/cyclinD3(h) (Homo sapiens)
- assay.procedure: Kinase Profiling Assay
- Format: biochemical
- condition.parameters: peptide 100 μM
The answer is to be given in %; state only the numeric part.

1) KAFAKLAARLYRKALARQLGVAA [MMI-0400] = 85
2) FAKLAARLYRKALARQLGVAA [MMI-0300] = 86
3) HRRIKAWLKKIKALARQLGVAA (Mammal) [MMI-0500] = 23

Could you now look at the following sequence, please?
Provide only the value of recorded % activity for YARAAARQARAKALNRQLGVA (Mammal) [MMI-0200]
100

====

- subject.of.test: RIPK2(h) (Homo sapiens)
- assay.procedure: Kinase Profiling Assay
- Type: biochemical
- condition.parameters: peptide 100 μM
reported.endpoint: % activity (%)
Entry rule: numbers only, all in %.

Look over these answered cases.
1) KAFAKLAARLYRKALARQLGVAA [MMI-0400] = 98
2) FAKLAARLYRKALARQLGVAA [MMI-0300] = 97
3) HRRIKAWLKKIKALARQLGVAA (Mammal) [MMI-0500] = 30

Field: next sequence
Give the reported % activity for this sequence. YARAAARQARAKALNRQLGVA (Mammal) [MMI-0200]
98
